Can you tell me yeast fitness for the items I'm about to list?
B1: tRNA (parent)
chain: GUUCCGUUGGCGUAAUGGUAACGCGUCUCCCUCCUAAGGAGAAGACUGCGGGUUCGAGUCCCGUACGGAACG

- Variants of: B1
- TEST: yeast fitness relative to wild type (ratio to wild type); higher = fitter; tRNA-Arg(CCU), competitive growth, 37 C, YPD
This sample holds only a part of the variants without activity.
In your answer, state the number alone without any accompanying words.

# yeast fitness lookup, item C4A G12A
0.666

Quick one: yeast fitness for G10A C33U C49U ?
0.663

For the variant shown here, U8G G41C , give the reported yeast fitness.
0.657

Please give the measured yeast fitness for this variant: C29U A43C G63A
0.699

Fill in the blank: the reported yeast fitness of C5A A14G C22G A37U is ____.
0.683

Given the entry A15G C31G U35C A43C , report its measured yeast fitness.
0.586

Fill in: yeast fitness of U16C G68A is ___
0.767

Record request: yeast fitness value, item G12A A20G G48A
0.63

Requested read-out: yeast fitness. Entry: A57C A65U
0.606

What does the record list as yeast fitness for U26G U64C ?
0.878

For A45C U59C A70C , what is its reported yeast fitness?
0.741

I would be grateful if you could share the reported yeast fitness for U2C C24U G25C U26A A57G .
0.878

I'd like to know its yeast fitness. The variant in question is U2C A42G
0.821

Name the recorded yeast fitness for G6A A42C .
0.894

So what does the record say about yeast fitness for G6A G67C ?
0.963

Quick check: yeast fitness of U13C A43U G56A ?
0.797

Find the recorded yeast fitness belonging to C4U U13A G23A A36U G39C C62A U64A and report it.
0.537

Form field: reported yeast fitness of C4U A14U A69U
0.651

Entry U3G U47G C60G has what yeast fitness?
0.503

Recorded yeast fitness for G48A G68C , please?
0.985

Requested field: yeast fitness. Item: G56C A69C
0.818

Quick check: yeast fitness of C31G G41A A43C G51C ?
0.562

Quick check: yeast fitness of C22A A37C A65G ?
0.691

# get_value(readout='yeast fitness', item= C4U G12A G39C C49A U64G )
0.544

I have this variant here, C4G G9A G39A , and I need its recorded yeast fitness.
0.576

# lookup: yeast fitness of A20G A37U
0.795

Quick check: yeast fitness of C11U A43C ?
0.686

For the variant G10A U19A , what yeast fitness is on record?
0.729

Would you mind telling me what yeast fitness value was observed for U47A U64A ?
0.677

Which yeast fitness value is on record for A36G G56A A70G ?
0.595

What measured yeast fitness goes with A14G C22G ?
0.806

For the variant shown here, C22A A69U A70C , give the reported yeast fitness.
0.685

// returns reported yeast fitness for input A40G A42G
0.986

Can you share its yeast fitness? I mean this variant: U26C A42U A69C
0.669

Which yeast fitness reading was recorded for the variant G12A U16A ?
0.974

Which value of yeast fitness has been reported for U35G A69C in the records?
0.592

Which yeast fitness is reported for this variant? C27A C31U A43U
0.961

Using the record for U32G C61A , report its yeast fitness.
0.535

So what does the record say about yeast fitness for U3A U28A ?
0.865

yeast fitness for U26G C31U C55U ?
0.564

# input variant: A14C C62G ; wanted: its yeast fitness
0.599

So what's the measured yeast fitness for this one? A20C C29U
0.715

What yeast fitness value was documented for this variant, C5U G48A C55U C66U ?
0.521

So what does the record say about yeast fitness for G25C C49G ?
0.781

// returns reported yeast fitness for input U7A G9C C30U C34G G68C
0.56

# input variant: C27G C31G G38C ; wanted: its yeast fitness
0.504
